The reported measurements were obtained from the supplement of paper PMC5908809.

test system: normal NK cells expanded with K562-aAPC; experiment: percent inhibition of viability; higher = more inhibition; details: 72 h; IL-2 2.5 ng/mL; 100 nM
Measure: percent inhibition of viability (%)
Give bare numbers, in %.

# batch size: 5; output percent inhibition of viability per entry
1. CC(C)CC(=O)Nc1n[nH]c2c1CN(C(=O)C1CCN(C)CC1)C2(C)C (max concentration tested 10000 nM)
2. O=C(CCBr)N1CCN(C(=O)CCBr)CC1 [Pipobroman] (max concentration tested 10000 nM)
3. S=C(NCc1ccc2c(c1)OCO2)N1CCN(c2ncnc3c2oc2ccccc23)CC1 [Amuvatinib] (max concentration tested 10000 nM)
4. O=C(O)c1ccc2c(c1)nc(Nc1cccc(Cl)c1)c1ccncc12 [Silmitasertib] (max concentration tested 10000 nM)
5. CCc1c(C(=O)C(N)=O)c2c(OCC(=O)O)cccc2n1Cc1ccccc1 [Varespladib] (max concentration tested 10000 nM)

RESULT:
9.16
-5.59
-4.91
2.51
-12.4

Notebook: COc1cc2c(N3CCN(C(=O)Nc4ccc(OC(C)C)cc4)CC3)ncnc2cc1OCCCN1CCCCC1 [Tandutinib] (max concentration tested 1000 nM) , percent inhibition of viability read as 1.29
